- target of assay: c-Myc template DNA (c-myc quadruplex)
- procedure text: Quadruplex binding / stop assay (Taq polymerase arrest, capillary electrophoresis)
- assay setup: read-out: S DATA; Table 1D, stop assay data
experimental readout: IC50 (µM)
Quick note: give the figure in µM, leave out the unit.

The following compounds have reported results that may help.
| compound | experimental result |
| --- | --- |
| CN1CCCC1CCNC(=O)c1cn2c3c(c(-n4cncc4-c4cnccn4)c(F)cc3c1=O)Oc1cc3ccccc3cc1-2 (stereo not shown) | 1.75 |
| CN1CCCC1CCNC(=O)c1cn2c3c(c(NCCCN4CCCC4=O)c(F)cc3c1=O)Oc1cc3ccccc3cc1-2 (stereo not shown) | 1.8 |
| O=C(NCCN1CCCC1)c1cn2c3c(c(N4CCC(c5cnccn5)C4)ccc3c1=O)Oc1ccccc1-2 (stereo not shown) | 3 |
| CN1CCN(c2c(F)cc3c(=O)c(C(=O)NCCN4CCCC4)cn4c3c2Oc2cc(Cl)ccc2-4)CC1 | 10 |

// switching to the query compound
query: Request the reported IC50 associated with COc1cccc(CCNc2c(F)cc3c(=O)c(C(=O)NCCC4CCCN4C)cn4c3c2Oc2cc3ccccc3cc2-4)c1 (stereo not shown)
result: 1.75

Values were extracted from patent US7507727B2.
